Source: PubChem BioAssay AID256

- System: CD2F1 mice, L1210 leukemia ip, survival T/C
- test-protocol: NCI In Vivo Anticancer Drug Screen. Data for tumor model L1210 Leukemia (intraperitoneal) in CD2F1 (CDF1) mice
- reported-conditions: endpoint: mean survival time; dose: 200.0 mg/kg/injection; schedule: Q04DX002 (ip); vehicle: saline with Tween-80; higher = longer survival
Toxic doses and inconclusive results are not listed.
property-label: T/C

[[record]]
molecule = "COc1ccc(C(=O)CN(C)S(=O)(=O)c2ccc(C)cc2)cc1"
result = "97 % of control"

[[record]]
molecule = "CCOC(=O)c1nc(SC)n(C)c1C(=O)OCC"
result = "105 % of control"

[[record]]
molecule = "NCCC(O)C(=O)NC1CC(N)C(OC2OC(CN)C(O)C(O)C2N)C(OC2OC(CO)C(O)C2O)C1O (stereo not given)"
result = "96 % of control"

[[record]]
molecule = "O=P(O)(CCCCl)c1ccccc1"
result = "91 % of control"

[[record]]
molecule = "O=S1(=O)CCCCN1c1ccccn1"
result = "94 % of control"


Here is another molecule to look at.
Entry "O=C(Oc1ccc(=O)[nH]n1)c1ccccc1" under CD2F1 mice, L1210 leukemia ip, survival T/C had T/C of 87 % of control

* * *

- Tested on: CD2F1 mice, L1210 leukemia ip, survival T/C
- test-protocol: NCI In Vivo Anticancer Drug Screen. Data for tumor model L1210 Leukemia (intraperitoneal) in CD2F1 (CDF1) mice
- reported-conditions: endpoint: mean survival time; dose: 200.0 mg/kg/injection; schedule: Q01DX001 (ip); vehicle: saline with Tween-80; higher = longer survival
Inconclusive results and toxic doses are left out. Residues, ends and D or L forms follow the SMILES beside them. *: point of attachment. Cbz = O=C(OCc1ccccc1)*; Bn = c1ccc(C*)cc1
property-label: T/C

Before answering, review these 5 worked examples.
[[record]]
molecule = "COC1OC(CO)C(O)C1n1cnc2c(=O)[nH]c(N)nc21 (stereo unspecified)"
property_label = "T/C"
result = "97 % of control"

[[record]]
molecule = "CCOC(=O)Cc1ccncc1CC"
property_label = "T/C"
result = "91 % of control"

[[record]]
molecule = "COC(=O)C(Cc1ccccc1)NC(=O)C(CSCc1ccccc1)NC(=O)OCc1ccccc1 (stereo unspecified) (Cbz-Cys(Bn)-Phe-OMe; configuration not given here)"
property_label = "T/C"
result = "95 % of control"

[[record]]
molecule = "Cc1ccc(C(=O)C(F)F)cc1"
property_label = "T/C"
result = "101 % of control"

[[record]]
molecule = "CN(C=O)c1cc2c3c(c1)CCCN3CCC2"
property_label = "T/C"
result = "104 % of control"


Here is another molecule to look at.
Entry under test: "O=C1N=c2cc([N+](=O)[O-])c([N+](=O)[O-])cc2=N1" . Its T/C was 103 % of control

* * *

- Tested on: CD2F1 mice, L1210 leukemia ip, survival T/C
- test-protocol: NCI In Vivo Anticancer Drug Screen. Data for tumor model L1210 Leukemia (intraperitoneal) in CD2F1 (CDF1) mice
- reported-conditions: endpoint: mean survival time; dose: 50.0 mg/kg/injection; schedule: Q04DX003 (ip); vehicle: saline; higher = longer survival
Toxic doses and inconclusive results are not listed.
property-label: T/C

[[record]]
compound = "C[As](C)[Se]C1OC(CO)C(O)C(O)C1O (stereo not given)"
test_target = "CD2F1 mice, L1210 leukemia ip, survival T/C"
result = "100 % of control"


Entry "C[N+](C)(C)CC[N+](C)(C)C" under CD2F1 mice, L1210 leukemia ip, survival T/C had T/C of 100 % of control

Entry O=C1CCCC2C1CCCC21OCCO1 (stereo not given) under CD2F1 mice, L1210 leukemia ip, survival T/C had T/C of 100 % of control

Entry "CC(=O)SCCC(=O)O" under CD2F1 mice, L1210 leukemia ip, survival T/C had T/C of 104 % of control

Entry "c1ccc2c(CC[n+]3cccc(C4OCCO4)c3)c[nH]c2c1" under CD2F1 mice, L1210 leukemia ip, survival T/C had T/C of 89 % of control

* * *

// T/C lookup, one value per entry
- System: CD2F1 mice, L1210 leukemia ip, survival T/C
- test-protocol: NCI In Vivo Anticancer Drug Screen. Data for tumor model L1210 Leukemia (intraperitoneal) in CD2F1 (CDF1) mice
- reported-conditions: endpoint: mean survival time; dose: 100.0 mg/kg/injection; schedule: Q01DX005 (ip); vehicle: distilled water + Tween-80; higher = longer survival
Toxic doses and inconclusive results are not listed.

[[record]]
compound = "CCCCCCCCCCC(Sc1n[nH]c(=O)[nH]c1=O)C(=O)OCC (stereo unspecified)"
result = "95 % of control"

[[record]]
compound = "O=c1[nH]cnc2c1nc(N1CCCC1)n2C1OC(CO)C(O)C1O (stereo unspecified)"
result = "102 % of control"

[[record]]
compound = "C=C1C(=O)OC2CC(C)C3CC(OCCCl)OC(OCCCl)C3(C)CC12 (stereo unspecified)"
result = "97 % of control"


Entry C/C(Cl)=C\CNc1ncnc2c1ncn2C1OC(CO)C(O)C1O (stereo unspecified) under CD2F1 mice, L1210 leukemia ip, survival T/C had T/C of 101 % of control

Entry CCCCCCC(Sc1n[nH]c(=O)[nH]c1=O)C(=O)OCC (stereo unspecified) under CD2F1 mice, L1210 leukemia ip, survival T/C had T/C of 96 % of control

Entry CC(=O)OC1COC(n2cnc(C#N)c2C#N)C(OC(C)=O)C1OC(C)=O (stereo unspecified) under CD2F1 mice, L1210 leukemia ip, survival T/C had T/C of 97 % of control

* * *

// T/C lookup, one value per entry
- System: CD2F1 mice, L1210 leukemia ip, survival T/C
- test-protocol: NCI In Vivo Anticancer Drug Screen. Data for tumor model L1210 Leukemia (intraperitoneal) in CD2F1 (CDF1) mice
- reported-conditions: endpoint: mean survival time; dose: 200.0 mg/kg/injection; schedule: Q04DX002 (ip); vehicle: saline; higher = longer survival
Inconclusive results and toxic doses are left out.

[[record]]
compound = "CCN1C2CCC1CC(O)C2 (centres undefined)"
test_target = "CD2F1 mice, L1210 leukemia ip, survival T/C"
property_label = "T/C"
result = "94 % of control"


Entry under test: "CN(C)c1nc(N)nc(-c2cc[n+]([O-])cc2)n1" . Its T/C was 88 % of control

Entry under test: CNc1nc(N)nc(CN2CCOCC2c2ccccn2)n1 (centres undefined) . Its T/C was 114 % of control

Entry under test: "O=S(=O)(O)c1ccc(/C2=c3\cc/c([n-]3)=C(\c3ccc(S(=O)(=O)O)cc3)c3ccc([n-]3)/C(c3ccc(S(=O)(=O)O)cc3)=c3/cc/c([n-]3)=C(\c3ccc(S(=O)(=O)O)cc3)c3ccc2[n-]3)cc1.[Co]" . Its T/C was 101 % of control

* * *

- Tested on: CD2F1 mice, L1210 leukemia ip, survival T/C
- test-protocol: NCI In Vivo Anticancer Drug Screen. Data for tumor model L1210 Leukemia (intraperitoneal) in CD2F1 (CDF1) mice
- reported-conditions: endpoint: mean survival time; dose: 100.0 mg/kg/injection; schedule: Q04DX003 (ip); vehicle: saline; higher = longer survival
Toxic doses and inconclusive results are not listed.
// T/C lookup, one value per entry

Before answering, review these 5 worked examples.
[[record]]
compound = "COc1cc(C)ccc1C1=CCCCCC1"
result = "93 % of control"

[[record]]
compound = "NC(=O)CCl"
result = "110 % of control"

[[record]]
compound = "C=C1C(=O)OC2(C)C(C)=C(C)C12C (stereo not given)"
result = "101 % of control"

[[record]]
compound = "CS(=O)(=O)/C=C(\\I)c1ccccc1"
result = "104 % of control"

[[record]]
compound = "Cc1cc2nc(CN)[nH]c2cc1C"
result = "98 % of control"


Entry "Clc1ccc(C2(c3ccncc3)OCCO2)cc1" under CD2F1 mice, L1210 leukemia ip, survival T/C had T/C of 101 % of control

Entry "Cc1ccc(Oc2ccc([N+](=O)[O-])cc2)cc1" under CD2F1 mice, L1210 leukemia ip, survival T/C had T/C of 100 % of control

Entry "O=C(CBr)c1ccc(I)cc1" under CD2F1 mice, L1210 leukemia ip, survival T/C had T/C of 106 % of control

Entry "C[N+](C)(C)CCS(=O)(=O)[O-]" under CD2F1 mice, L1210 leukemia ip, survival T/C had T/C of 102 % of control

* * *

// T/C lookup, one value per entry
- System: CD2F1 mice, L1210 leukemia ip, survival T/C
- test-protocol: NCI In Vivo Anticancer Drug Screen. Data for tumor model L1210 Leukemia (intraperitoneal) in CD2F1 (CDF1) mice
- reported-conditions: endpoint: mean survival time; dose: 200.0 mg/kg/injection; schedule: Q01DX009 (ip); vehicle: saline with Tween-80; higher = longer survival
Toxic doses and inconclusive results are not listed.

Before answering, review these 10 worked examples.
[[record]]
compound = "CC(=O)N(c1c(F)c(F)cc(F)c1F)c1c(F)c(F)cc(F)c1F"
result = "103 % of control"

[[record]]
compound = "Cc1ccc(S(=O)(=O)/C=C(\\C=C/c2ccccc2)c2ccccc2)cc1"
result = "106 % of control"

[[record]]
compound = "O=S1(=O)CC(Br)C(Br)C1 (stereo unspecified)"
result = "110 % of control"

[[record]]
compound = "CNC(=O)/C(=C\\c1ccccc1)NC(C)=O"
result = "98 % of control"

[[record]]
compound = "ClC(Cl)(Cl)C1=NCc2nnn(Cc3ccccc3)c2N1"
result = "107 % of control"

[[record]]
compound = "COc1ccccc1NC(=S)N(C)C"
result = "98 % of control"

[[record]]
compound = "Cc1ccc(S(=O)(=O)OCC(OS(=O)(=O)c2ccc(C)cc2)C2OC(c3ccccc3)OC2C2COC(c3ccccc3)O2)cc1 (stereo unspecified)"
result = "95 % of control"

[[record]]
compound = "O=C(CC1CCCCC1)N/N=C/c1cccc([N+](=O)[O-])c1"
result = "93 % of control"

[[record]]
compound = "C/C=C(\\C)C(C)O (stereo unspecified)"
result = "95 % of control"

[[record]]
compound = "CC(C)(CCCO)c1cccc(Cl)c1"
result = "104 % of control"


Entry under test: "COc1cccc(OC)c1OC(=O)Nc1c(Cl)cccc1Cl" . Its T/C was 105 % of control

Entry under test: CC(=O)C(C(C)=O)C1C=CCC1 (stereo unspecified) . Its T/C was 104 % of control

Entry under test: "COc1cc(/C=N/NC(=O)COc2ccccc2)ccc1O" . Its T/C was 89 % of control

Entry under test: "Cc1ccc(NC(=O)Oc2ccc(Br)cc2)cc1[N+](=O)[O-]" . Its T/C was 98 % of control

Entry under test: "O=S(=O)(O)c1ccc(Nc2ccccc2)cc1" . Its T/C was 97 % of control

Entry under test: "CC1(C)C2CCC1(C(=O)O)CC2" . Its T/C was 97 % of control
